Target: biotinylated r(G4C2)8 RNA and hnRNP H1-His6
Experiment: TR-FRET hnRNP H binding assay
Settings: Table F
Method: TR-FRET hnRNP H Binding Assay. The TR-FRET assays were performed as previously described (Disney et al., 2012) except the final concentrations of biotinylated r(G4C2)8 (SEQ ID NO: 2) RNA and hnRNP H1-His6 were 80 nM and 75 nM, respectively. […] After incubating for 1 h, TR-FRET was measured as previously described. The IC50s were either calculated by fitting the equation (1) in Graphpad Prism.
quantity_name: Ki (µM)

> print(dat)
                            structure.smiles  relation  reported.measurement
 1  Cc1c2ccncc2cc2c3cc(OCC4=NCCN4)ccc3n(CC(C)(C)C)c12         >                   200
 2   Cn1c2ccc(OCCN3CCOCC3)cc2c2cc3ncccc3cc21         >                   200
 3   Cc1c2ccncc2cc2c1oc1ccc(OCCN3CCOCC3)cc12         >                   200
 4  Cc1c2ccncc2cc2c3cc(OCCN4CCOCC4)ccc3n(CC(C)(C)C)c12         >                   200
 5  Cc1c2ccncc2cc2c3cc(OCCN4CCOCC4)ccc3n(C(C)C)c12         >                   200
 6  Cc1c2ccncc2cc2c3cc(OC[C@@H](C)N(C)C)ccc3n(C)c12         =                   0.5
 7  Cc1c2ccnc(C(=O)N[C@H](C)CN(C)C)c2cc2c3cccc(OCCCN4CCN(C)CC4)c3n(C)c12         =                    14
 8   CCn1c2ccc(OCC3=NCCN3)cc2c2cc3cnccc3cc21         =                   8.8
 9  Cc1c2ccnc(C(=O)N[C@H](C)CN(C)C)c2cc2c3ccc(OCCCN4CCN(C)CC4)cc3n(C)c12         =                   6.1
10  Cc1c2ccncc2cc2c3cc(OCCN4CCC(C)(C)CC4)ccc3n(C)c12         =                   3.1
11  CC(C)n1c2ccc(OCC3=NCCN3)cc2c2cc3cnccc3cc21         =                    42
12      Cc1c2ccncc2cc2c1oc1ccc(OCCN(C)C)cc12         =                    14

* * *

Test system: RAN translation of (G4C2)66-No ATG-GFP in HEK293T cells
Experiment: Cell-based assay of RAN translation inhibition (GFP/mCherry reporter)
Conditions: Homo sapiens, HEK-293T, 24 h, Table D; HEK293T, 24 h treatment; read-out: RANT IC25
Label rule, in plain words: IC25 of 900 nM and up is Fulfilled, under 900 nM is Not fulfilled.

> print(dat)
                            structure.smiles    label.class
 1  Cc1c2ccncc2cc2c3cc(OC[C@@H]4CCCN4C)ccc3n(C)c12      Fulfilled
 2  Cc1c2ccncc2cc2c3cc(C(=O)NCCO)ccc3n(C)c12      Fulfilled
 3  CCN(CC)CCCOc1ccc2c(c1)c1cc3cnccc3c(C)c1n2C      Fulfilled
 4  COc1ccc2c(c1)c1cc3c(C(=O)NCCCN(C)C)nccc3c(C)c1n2C  Not fulfilled
 5  CCn1c2ccc(OCC3=NCCN3)cc2c2cc3cnccc3c(C)c21      Fulfilled
 6  Cc1c2cnccc2cc2c3cc(OCC4=NCCN4)ccc3n(C)c12      Fulfilled
 7  Cc1c2ccncc2cc2c3cc(C(=O)NCCN(C)C)ccc3n(C)c12  Not fulfilled
 8  COc1ccc2c(c1)c1cc3c(C(=O)N[C@@H](C)CN(C)C)nccc3c(C)c1n2C      Fulfilled
 9  Cc1c2ccncc2cc2c3cccc(OCCN4CCOCC4)c3n(C)c12      Fulfilled
10  Cc1c2ccncc2cc2c3ccc(OCC4=NCCN4)cc3n(C)c12      Fulfilled
11  Cc1c2ccncc2cc2c3cc(OCCN4CCOCC4)ccc3n(C)c12  Not fulfilled
12  Cc1c2ccncc2cc2c3cc(C(=O)N(C)C)ccc3n(C)c12      Fulfilled
13  Cc1c2ccncc2cc2c3cc(C(=O)N4CCNCC4)ccc3n(C)c12      Fulfilled
14  Cc1c2ccncc2cc2c3cc(C(=O)NCCN4CCCCC4)ccc3n(C)c12      Fulfilled

Where do the numbers come from? From patent US20240067639A1.
